PROTOCOL_TEXT: NCI Yeast Anticancer Drug Screen. Data for the bub3 strain (AID 167)
CONDITIONS_USED: S. cerevisiae bub3 mutant strain, at 5.0 µM (retest, dose inferred, filed as 0.5), hits give high values
Procedure: Growth inhibition of yeast strains with defined genetic alterations is measured as a screen for potential anti-cancer activity. Selected strains with alterations in DNA damage repair or cell cycle control were exposed to compounds and growth inhibition was measured relative to vehicle treated controls. The strain used in this assay is bub3
This is part of a sample that, as a whole, favours compounds with a hit. Of some 79,000 tested, about 15% had one in any assay.
PARAMETER_MEASURED: growth inhibition (%)

INSERT INTO results (compound, obs_value) VALUES
  ('CCCCSc1n[nH]c(=O)nc1SC', -64),
  ('CCOC(=O)/C=C(\C)Sc1cc(O)c2ccccc2c1O', -5),
  ('CCCCC(CC)(CCC)CCN (centres undefined)', -3),
  ('O=C(NCCCNCCNC(=O)c1cc(-c2ccccc2)nc2ccccc12)c1cc(-c2ccccc2)nc2ccccc12', -23),
  ('CC1C(c2ccc3c(c2)OCO3)c2cc3c(cc2OC1N1CCOCC1)OCO3 (centres undefined)', 27),
  ('CN(C)c1nc(N(C)C)oc(=[N+](C)C)n1', 3),
  ('O=C1NOCC1N=Cc1cc(Cl)ccc1O (centres undefined)', 6),
  ('CC1=C(C(=O)Nc2cccc(Cl)c2)C(c2ccccc2O)C(C(=O)Nc2cccc(Cl)c2)=C(C)N1', 12),
  ('COC/C(Br)=C\SC#N (tested in a mixture with another compound)', -6),
  ('O=C(O)c1ccc2c3c(ncnc13)-c1ccccc1C2=O', 36),
  ('C=C1CC(C)(COc2ccc3c(C)c(C)c(=O)oc3c2C)OC1=O (centres undefined)', 26),
  ('CCOC(=O)C1SC(=Nc2ccc(Cl)cc2)N=C1C (centres undefined)', 19),
  ('O=C1NN(C2=NNC3(C(=O)N2)c2ccccc2-c2ccccc23)C(c2ccccc2)=N/C1=C/c1ccc(O)cc1', -14),
  ('Oc1ccccc1/C=N/NC(=S)NC12CC3CC(CC(C3)C1)C2', 21),
  ('OC(c1cc2ccccc2o1)c1cc2ccccc2s1 (centres undefined)', -6),
  ('O/N=C(/C[n+]1csc2ccccc21)c1ccccc1', 12),
  ('O=C(O)c1c2c(cc3c1CC1(Cc4cc5c(cc4C1=O)CCC5)C3)CCC2 (centres undefined)', 42),
  ('COc1ccc(N=N/N=c2\sc3cc(OC)ccc3n2C)cc1', -5),
  ('CCOC(=O)/C(=C/c1ccccn1)C(=O)c1ccccc1', 67),
  ('Nc1nc(N)c2c(ccc3c2ccn3Cc2cccc([N+](=O)[O-])c2)n1', 43),
  ('CCNC(=S)NNC(=S)NNc1ccccc1', 36),
  ('CN(C)c1ccc(N=Nc2cccc3ccccc23)cc1', -5),
  ('Cc1[nH]nc(-c2ccon2)c1N=O', 56),
  ('CCOC(=O)/C=C/c1ccc([N+](=O)[O-])o1', 11),
  ('Clc1ccc(-c2nc3ccc(Cl)cc3[nH]2)cc1', 19),
  ('O=[N+]([O-])c1cc(CN(CCO)CCO)c(O)c2ncccc12', 95),
  ('Cc1cccc(C)c1N1C(=O)C2Nc3ccccc3SC2C1=O (centres undefined)', 1),
  ('CC1(C)CC([P+](c2ccccc2)(c2ccccc2)c2ccccc2)=NN1', 71),
  ('CCCCCCCC1SCC(=O)N1c1nncs1 (centres undefined)', 19),
  ('COc1ccc([N+](=O)[O-])cc1[I+]c1cc([N+](=O)[O-])ccc1OC', 9),
  ('CSc1ncnc2ncn(C3OC(CO)C(O)C3O)c12 (centres undefined)', -10),
  ('O=C1C=CC(=O)c2c(O)c(N3CCC[C@H]3CO)c(Cl)c(O)c21', 25),
  ('Cc1ccccc1N1CCN(c2c3c(nc4ccccc24)CCCCC3)CC1', -9),
  ('CCC1(C)CCC2(C)C(CCC3C4(C)CCCC32OC4=O)C1 (centres undefined)', 15),
  ('CSc1nc(SC)c2cnn(Cc3ccccc3)c2n1', -8),
  ('CSc1ncccc1C(=O)[O][Sn]([c]1ccccc1)([c]1ccccc1)[c]1ccccc1', 99),
  ('CC(CO)(Nc1ccc([N+](=O)[O-])cc1[N+](=O)[O-])C(=O)O (centres undefined)', 1),
  ('C[CH2][Sn]([CH2]C)([O]C(=O)c1cccc(OC)c1)[O][Sn]([CH2]C)([CH2]C)[O]C(=O)c1cccc(OC)c1', 30),
  ('COC(=O)c1cccc2cccc(C(=O)Nc3ccc(Cl)cc3)c12', 82);
